meta.source: patent EP0679649B1

biological target: adrenaline α1 receptor; test: Affinity for adrenaline α1 receptor (inhibition of 3H-Prazosin binding to rat cerebral cortex membrane fraction); conditions: rat cerebral cortex membrane fraction; radioligand 3H-Prazosin; compounds tested as hydrochloride salt
pKi: −log10 of the molar value.
recorded.endpoint: pKi

These solved cases illustrate the format of a correct answer.
INSERT INTO measurements (molecule, observed_measurement) VALUES
  ('O=C(NCCCCNCC1Cc2ccccc2O1)c1ccccc1O (centres unmarked) [Example 29]', 6.59),
  ('O=C(NCCCCNCC1Cc2ccccc2O1)c1ccccc1F (centres unmarked) [Example 9]', 6.48),
  ('CCN(CCCCNC(=O)c1ccccc1)CC1Cc2ccccc2O1 (centres unmarked) [Example 25]', 6.15),
  ('O=C(NCCCCNCC1Cc2ccccc2O1)c1ccccc1 (centres unmarked) [Example 1]', 6.46),
  ('O=C(NCCCCNCC1Cc2ccccc2O1)c1cccc([N+](=O)[O-])c1 (centres unmarked) [Example 15]', 6.60);

a. O=C(NCCCCNCC1Cc2ccccc2O1)c1ccc(F)cc1 (centres unmarked) [Example 11]
b. CN(CCCCNC(=O)c1ccccc1)CC1Cc2ccccc2O1 (centres unmarked) [Example 24]
*Q* Looking at recorded values for pKi, does a or b come in lower? Write down the label attached to your selection.
*A* b

###

Target: UniProt:P19327
Sequence (P19327 1-422): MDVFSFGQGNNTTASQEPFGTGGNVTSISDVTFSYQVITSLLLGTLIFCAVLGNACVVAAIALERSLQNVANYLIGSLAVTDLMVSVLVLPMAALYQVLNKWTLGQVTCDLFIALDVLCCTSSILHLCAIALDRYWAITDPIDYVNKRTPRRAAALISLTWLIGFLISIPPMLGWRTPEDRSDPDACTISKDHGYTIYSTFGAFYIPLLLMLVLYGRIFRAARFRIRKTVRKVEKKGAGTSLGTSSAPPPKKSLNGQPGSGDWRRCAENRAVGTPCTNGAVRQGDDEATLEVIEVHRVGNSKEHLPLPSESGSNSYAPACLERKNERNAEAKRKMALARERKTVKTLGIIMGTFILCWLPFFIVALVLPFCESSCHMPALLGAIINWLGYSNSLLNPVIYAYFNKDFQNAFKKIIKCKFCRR
recorded.endpoint: Ki (nM)

Some entries whose results are on file:
INSERT INTO assay_data (compound, target, recorded_endpoint, observed_measurement) VALUES
  ('O=C(NCCCCNCC1Cc2ccccc2O1)c1ccccc1O (stereo not drawn)', 'UniProt:P19327', 'Ki', 5.4),
  ('O=C(NCCCCNCC1Cc2ccccc2O1)c1ccccc1F (stereo not drawn)', 'UniProt:P19327', 'Ki', 8.2),
  ('O=S(=O)(NCCCCNCC1Cc2ccccc2O1)c1ccccc1 (stereo not drawn)', 'UniProt:P19327', 'Ki', 11),
  ('CN(CCCCNC(=O)c1ccccc1)CC1Cc2ccccc2O1 (stereo not drawn)', 'UniProt:P19327', 'Ki', 11),
  ('Cc1cccc(C(=O)NCCNCC2Cc3ccccc3O2)c1 (stereo not drawn)', 'UniProt:P19327', 'Ki', 1.6),
  ('O=C(NCCCCNCC1Cc2ccccc2O1)c1ccccc1 (single isomer, unassigned; (-)) [Example 18]', 'UniProt:P19327', 'Ki', 1.3);

A. O=C(NCCNCC1Cc2ccccc2O1)c1ccc(F)cc1 (stereo not drawn)
B. O=C(NCCNCC1Cc2ccccc2O1)c1ccccc1 (stereo not drawn)
*Q* Given the two records A and B , choose the one whose Ki value is lower. // respond with label for picked entry
*A* A
(A: 2 nM, B: 3.7 nM)
